Attribution: ChEMBL document CHEMBL1152186

- Species: Bos taurus
- test_description: Inhibition of LPS-induced PAI1 production in BCAEC at 10 uM after 24 hrs relative to T-686
- Type: functional
Parameter threshold = 0.7. Response is True when Activity meets or exceeds it, else False.

Record excerpt, results attached:
# mol, discrete_label
data = [
    ("COC(=O)C(=C/c1cc(OC)c(OC)c(OC)c1)/C(C(N)=O)=C(/C)c1ccccc1", "False"),
    ("COc1cc(/C=C2/C(=O)NC(=O)/C2=C/c2ccccc2)cc(OC)c1OC", "True"),
    ("COC(=O)C(=C/c1cc(OC)c(OC)c(OC)c1)/C(C(N)=O)=C(\\C)c1ccccc1", "False"),
    ("COC(=O)C(/C(=C\\c1ccccc1)C(N)=O)=C(\\C)c1cc(OC)c(OC)c(OC)c1", "False"),
    ("COC(=O)C(=C/c1cc(OC)c(OC)c(OC)c1)/C(=C\\c1ccccc1)C(N)=O", "True"),
]

Reported Activity at or above 0.7? COC(=O)C(=C(/C)c1cc(OC)c(OC)c(OC)c1)/C(=C\c1ccccc1)C(N)=O True

---

- test_description: Solubility in water
- Type: physicochemical
measurement_kind: solubility

Here is how some molecules turned out for solubility.
# mol, measurement_kind, reported_result
rows = [
    ("COC(=O)C(=C(/C)c1cc(OC)c(OC)c(OC)c1)/C(=C\\c1ccccc1)C(N)=O", "solubility", "106 µg/mL"),
    ("COC(=O)C(=C(/C)c1cc(OC)cc(OC)c1)/C(=C\\c1ccncc1)C(N)=O", "solubility", "> 4000 µg/mL"),
    ("COc1cc(/C=C2/C(=O)NC(=O)/C2=C/c2ccccc2)cc(OC)c1OC", "solubility", "9 µg/mL"),
    ("COC(=O)C(=C(/C)c1cc(OC)cc(OC)c1)/C(=C\\c1ccccc1)C(=O)NN1CCN(C)CC1", "solubility", "> 4000 µg/mL"),
    ("COC(=O)C(=C(/C)c1cc(OC)cc(OC)c1)/C(=C\\c1ccccc1)C(=O)NCc1cccnc1", "solubility", "1600 µg/mL"),
]

Which solubility is reported for this molecule? COC(=O)C(=C(/C)c1cc(OC)cc(OC)c1)/C(=C\c1ccccc1)C(=O)Nc1cccnc1 > 2000 µg/mL

Which solubility is reported for this molecule? COC(=O)C(=C(/C)c1cc(OC)cc(OC)c1)/C(=C\c1ccccc1)C(=O)NCc1ccncc1 > 2000 µg/mL

Which solubility is reported for this molecule? COC(=O)C(=C(/C)c1cc(OC)cc(OC)c1)/C(=C\c1ccccc1)C(=O)Nc1ccncc1 > 3000 µg/mL

---

- test_description: Metabolic stability in dog blood after 1 hr
- Assay type: ADME, tissue-based, Canis lupus familiaris
- stated_conditions: read-out: Stability
measurement_kind: remaining at 1 h (%)
Could you give me the number in %? Just the number is fine.

Here is how some molecules turned out for remaining at 1 h.
# mol, readout_units, remaining at 1 h
data = [
    ("COC(=O)C(=C(/C)c1cc(OC)cc(OC)c1)/C(=C\\c1ccccc1)C(=O)NCc1ccncc1", "%", 76),
    ("COC(=O)C(=C(/C)c1cc(OC)cc(OC)c1)/C(=C\\c1ccccc1)C(=O)Nc1ccncc1", "%", 87),
    ("COC(=O)C(=C(/C)c1cc(OC)cc(OC)c1)/C(=C\\c1ccccc1)C(=O)NCc1cccnc1", "%", 87),
]

Which remaining at 1 h is reported for this molecule? COC(=O)C(=C(/C)c1cc(OC)cc(OC)c1)/C(=C\c1ccccc1)C(=O)NN1CCN(C)CC1 89

Which remaining at 1 h is reported for this molecule? COc1cc(/C=C2/C(=O)NC(=O)/C2=C/c2ccccc2)cc(OC)c1OC 79

---

Here the recorded remaining at 1 h is given for each entry.
- test_description: Metabolic stability in dog blood after 1 hr
- Type: ADME, tissue-based, Canis lupus familiaris
- stated_conditions: read-out: Stability
Could you give me the number in %? Just the number is fine.

Here is how some compounds turned out for remaining at 1 h.
# mol, readout_units, remaining at 1 h
records = [
    ("COC(=O)C(=C(/C)c1cc(OC)cc(OC)c1)/C(=C\\c1ccncc1)C(N)=O", "%", 88),
    ("COC(=O)C(=C\\c1cc(OC)c(OC)c(OC)c1)/C(=C\\c1ccccc1)C(N)=O", "%", 75),
    ("COC(=O)C(=C(/C)c1cc(OC)cc(OC)c1)/C(=C\\c1ccccc1)C(=O)Nc1cccnc1", "%", 83),
]

Here is another compound to look at.
Which remaining at 1 h is reported for this compound? COC(=O)C(=C(/C)c1cc(OC)c(OC)c(OC)c1)/C(=C\c1ccccc1)C(N)=O 96
